experiment: inhibition of 3D7 malaria parasite growth – strain 3D7 (AID 2306);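 note: 0% = DMSO wells and 100% = chloroquine plus artemisinin control wells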; conditions: P. falciparum 3D7 erythrocytic growth, LDH absorbance, 72 h; at 2 µM; active compounds read high
I'd be grateful if you could share measured growth inhibition for these entries.
# number only, unit % dropped from output

Entry under review: O=C(Cc1ccccc1)NC1CCN(c2ccnc3cc(Cl)ccc23)C1 (centres undefined) . Reported growth inhibition? 101

Also CC(C)CC(=O)Nc1cc(=O)[nH]c2nc(-c3ccccc3)nn12 , if possible. 89

Next molecule up: Cc1cc(N[C@@H](Cc2ccccc2)C(=O)NCc2cccc(F)c2)nc(NCCc2ccc(F)cc2)n1 99

What about this molecule? CN(C)C(C)(C)CN(Cc1ccc(-c2ccc(C(F)(F)F)cc2)cc1)C(=O)Cn1c(CCc2cccc(F)c2F)nc(=O)c2ccccc21 95

Cool, now O=C(NCc1cccs1)[C@H](Cc1ccccc1)Nc1ccnc(NCC2CCCCC2)n1 83

Same for CC(C)OC(=O)c1ccc(NC(=O)N[C@@H](Cc2ccc(O)cc2)C(=O)NC2CCC(CCN3[C@@H]4CC[C@H]3c3ccccc34)CC2)cc1 (some centres undefined) 95

And the next one, CN1CCN(c2ccnc3ccc(NC(=O)Nc4ccc(-c5ccccc5)cc4)cc23)CC1 ? 99

Try this molecule too: CC1(C)N=C(NC(=O)c2cc([N+](=O)[O-])cc([N+](=O)[O-])c2)N=C(N)N1OCc1cccc2ccccc12 94

Further, for CC(C)NCc1ccc(-c2cccc(-c3nc4ccc(F)cc4[nH]3)c2)cc1 ? 101
